# Tested on: Rattus norvegicus
# conditionSet: acute; oral; gavage
parameterMeasured: LD50

Input: Quick one: LD50 for "S=C(SN1CCOCC1)N1CCOCC1" ?
Output: 5110 mg/kg

Input: Value lookup for LD50; key = "O=S(=O)([O-])c1ccc(Nc2nc(Nc3ccc(/C=C/c4ccc(Nc5nc(Nc6ccc(S(=O)(=O)[O-])cc6)nc(N(CCO)CCO)n5)cc4S(=O)(=O)[O-])c(S(=O)(=O)[O-])c3)nc(N(CCO)CCO)n2)cc1.[Na+].[Na+].[Na+].[Na+]"
Output: > 15000 mg/kg

Input: State the recorded LD50 for this entry: COc1cc(NC(=O)C(N=Nc2ccc(-c3ccc(N=NC(C(C)=O)C(=O)Nc4cc(OC)c(Cl)cc4OC)c(Cl)c3)cc2Cl)C(C)=O)c(OC)cc1Cl (stereo not drawn)
Output: > 1750 mg/kg
